Data credit: ChEMBL document CHEMBL4052686

# System: Bacillus subtilis
# testSummary: Inhibition of FtsZ in penicillin-susceptible Bacillus subtilis ATCC 9372 assessed as lowest drug concentration causing inhibition of cell division incubated for 5 hrs by phase-contrast light microscopy
measuredParameter: MIC (µg/mL)
Answers are plain numbers, in µg/mL.

Solved entries:
{"compoundStructure": "CCCCc1ccc2c(c1)c1ccccc1c[n+]2C.[Cl-]", "resultValue": 4}
{"compoundStructure": "CSc1ccc2c(c1)c1ccccc1c[n+]2C.[Cl-]", "resultValue": 8}
{"compoundStructure": "C[n+]1cc2ccccc2c2cc(C(F)(F)F)ccc21.[Cl-]", "resultValue": 64}
{"compoundStructure": "C[n+]1cc2ccccc2c2cccc(OC(F)(F)F)c21.[Cl-]", "resultValue": 4}
{"compoundStructure": "C[n+]1cc2ccccc2c2cc(C(C)(C)C)ccc21.[Cl-]", "resultValue": 8}

Attention now shifts to the item below.
Request: Assign MIC to the following record: CC(C)c1cccc2c3ccccc3c[n+](C)c12.[Cl-]
Response: 4
